Known melting point of a selection of compounds

{"CHEM SMILES": "Cc1cc(C(=O)Nc2ccn3cc(-c4ccccc4)nc3n2)ccn1", "QUANTITY": "melting point", "MEASUREMENT": "255 to 257 °C"}
{"CHEM SMILES": "Cc1ncc(Cl)c(C(=O)Nc2ccn3cc(-c4ccccc4)nc3n2)n1", "QUANTITY": "melting point", "MEASUREMENT": "> 250 °C"}
{"CHEM SMILES": "COc1ncccc1C(=O)Nc1ccn2cc(-c3ccccc3)nc2n1", "QUANTITY": "melting point", "MEASUREMENT": "225 to 226 °C"}

Next:
Item `Cc1cc(C(=O)Nc2ccn3cc(-c4ccccc4)nc3n2)cc(Cl)n1` has what recorded melting point? 148 to 151 °C
